- targetOfAssay: M4 muscarinic receptor (Homo sapiens)
- Construct: expressed in transfected cells; host or cells: CHO (M4-CHO)
- Sequence (P08173 1-479): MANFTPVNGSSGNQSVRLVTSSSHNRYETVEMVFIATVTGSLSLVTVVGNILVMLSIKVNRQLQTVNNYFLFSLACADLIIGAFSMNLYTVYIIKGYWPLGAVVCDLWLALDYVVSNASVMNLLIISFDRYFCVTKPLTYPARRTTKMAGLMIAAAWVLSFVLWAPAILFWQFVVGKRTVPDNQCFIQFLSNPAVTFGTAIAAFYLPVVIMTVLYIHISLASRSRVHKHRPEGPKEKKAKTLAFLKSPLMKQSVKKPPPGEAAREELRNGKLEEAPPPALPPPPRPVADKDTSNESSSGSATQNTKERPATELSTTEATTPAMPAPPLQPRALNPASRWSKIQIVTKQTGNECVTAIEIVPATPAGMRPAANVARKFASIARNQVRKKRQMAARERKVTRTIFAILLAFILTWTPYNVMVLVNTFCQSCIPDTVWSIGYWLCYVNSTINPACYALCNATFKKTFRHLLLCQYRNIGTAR
- methodDescription: Functional mobilization of intracellular calcium (FLIPR) in M4-CHO cells
- Type: cell-based
- conditionDetails: M4 receptor, calcium mobilization; read-out: M4 Efficacy
Quick reference: Emax of the listed items.
observationType: Emax

>  <compound>
CCOC(=O)N1CCC(N2CCC3(CC2)CN(C(=O)c2ccc(OC(F)(F)F)cc2)c2ccc(F)cc23)CC1

>  <observedMeasurement>
> 85%

$$$$
>  <compound>
C#CCOC(=O)N1CCC(CN2CCC3(CC2)C[C@H](NC(C)=O)c2ccccc23)CC1

>  <observedMeasurement>
< 65%

$$$$
>  <compound>
CCOC(=O)N1C2CCC1CC(N1CCC3(CC1)CN(C(=O)O[C@@H]1CCOC1)c1ccc(F)cc13)C2 (stereo partly drawn)

>  <observedMeasurement>
65 to 85%

$$$$
>  <compound>
Clc1ccc2c(c1)C1(CCO2)CCN(C[C@H]2C[C@H]3C=C[C@H]2C3)CC1

>  <observedMeasurement>
< 65%

$$$$
>  <compound>
Cc1ccc2c(c1)C1(CCN(C3CC4CCC3C4)CC1)CN2S(=O)(=O)c1ccccc1 (stereo not drawn)

>  <observedMeasurement>
65 to 85%

$$$$
>  <compound>
CCCOC(=O)N1C2CCC1CC(N1CCC3(CC1)CN(C(=O)O[C@@H]1CCOC1)c1ccc(F)cc13)C2 (stereo partly drawn)

>  <observedMeasurement>
< 65%

$$$$
>  <compound>
CCOC(=O)N1C2CCC1CC(N1CCC3(CC1)CN(C(=O)c1snnc1C)c1ccc(F)cc13)C2 (stereo not drawn)

>  <observedMeasurement>
65 to 85%

$$$$
>  <compound>
CCCc1ccc2c(c1)C1(CCN(C3CCN(C(=O)OCC)CC3)CC1)CN2C(C)=O

>  <observedMeasurement>
65 to 85%

$$$$
>  <compound>
C1=C[C@H]2C[C@H]1C[C@@H]2CN1CCC2(CCc3ccccc32)CC1

>  <observedMeasurement>
< 65%

$$$$
>  <compound>
CCOC(=O)N1CCC(N2CCC3(CC2)CN(C(=O)N(C)C)c2ccc(F)cc23)CC1

>  <observedMeasurement>
> 85%

$$$$
>  <compound>
Clc1ccc2c(c1)C1(CCO2)CCN(CC2CCOCC2)CC1

>  <observedMeasurement>
< 65%

$$$$
>  <compound>
CCOC(=O)N1C2CCC1CC(N1CCC3(CC1)CN(C(=O)c1ccc(F)cc1)c1ccc(F)cc13)C2 (stereo not drawn)

>  <observedMeasurement>
< 65%

$$$$
>  <compound>
O=C(OC1CCC1)N1C2CCC1CC(N1CCC3(CCc4ccccc43)CC1)C2 (stereo not drawn)

>  <observedMeasurement>
< 65%

$$$$
>  <compound>
CCOC(=O)N1C2CCC1CC(CN1CCC3(CC1)CNc1ccc(C)cc13)C2 (stereo not drawn)

>  <observedMeasurement>
< 65%

$$$$
>  <compound>
CC(=O)N(C)[C@H]1CC2(CCN(C[C@H]3C[C@H]4CC[C@H]3C4)CC2)c2ccccc21

>  <observedMeasurement>
65 to 85%

$$$$
>  <compound>
CC(=O)N1CC2(CCN(C3CCCN(C(=O)OCCF)CC3)CC2)c2cc(F)ccc21 (stereo not drawn)

>  <observedMeasurement>
> 85%

$$$$
>  <compound>
CN(C)C(=O)N1CC2(CCN(C3CCN(C(=O)O[C@@H]4CCOC4)CC3)CC2)c2cc(F)ccc21

>  <observedMeasurement>
< 65%

$$$$
>  <compound>
CCOC(=O)N1CCC(N2CCC3(CC2)CN(C(=O)c2cccc(OC)c2)c2ccc(F)cc23)CC1

>  <observedMeasurement>
65 to 85%

$$$$
